System: AAMU-Ab
procedure.summary: Competitive antigen ELISA, cross-reactivity of AAMU-Ab
Assay type: binding, rabbit
measurement.context: read-out: concentration required for 50% inhibition in the competitive antigen ELISA; AAMU-Ab, AAMU-HRP conjugate
endpoint.name: pIC50
// returns pIC50 (minus log10 of molar concentration), number only

// query pIC50 value for entry CC(=O)Nc1c(N)n(C)c(=O)[nH]c1=O
5.82

----------
Test system: 1X-Ab
procedure.summary: Competitive antigen ELISA, cross-reactivity of 1X-Ab
Format: binding, rabbit
measurement.context: read-out: concentration required for 50% inhibition in the competitive antigen ELISA; 1X-Ab, 1X-HRP conjugate
endpoint.name: IC50 (µM)
Lab book: enter the figure in µM, no units written.

// query IC50 value for entry Cn1c(=O)[nH]c2nc[nH]c2c1=O [1-Methyl Xanthine (1X), 1-Methyl Xanthine]
10
